Tested on: OVCAR-4 ovarian
Assay: NCI-60 one-dose screen, 48 h (100 = growth as untreated, 0 = no growth, -100 = all killed)
Conditions: 10 µM unless noted
The panel holds about 83,000 compounds, 20% with a hit somewhere; the sample as a whole holds those more often. The source made the active and inactive calls. How the source made its calls: active means growth percent below 10; inactive means the rest.
Please go through the items and note down their growth.

Example entries and their recorded answers appear below.
| Compound | growth |
| --- | --- |
| Cc1cc(C)n(-c2nnc3n2N=C(c2ccc(-c4ccccc4)cc2)CS3)n1 | 74.7% (inactive) |
| COc1ccc(C2=Nn3c(nnc3-n3nc(C)cc3C)SC2)cc1 | 61.1% (inactive) |
| COc1ccc(-n2c(-c3ccccc3)c(-c3ccccc3)c3c(SCC(=O)N/N=C/c4ccc(Cl)cc4)ncnc32)cc1 | 92% (inactive) |
| CCCCCCCCCCCCNC(=O)[C@H]1CSC(c2cc(Br)cs2)N1 (stereo not given in full) | -72.4% (active) |

# map each compound to its growth
1. Cn1c2ccc(Br)cc2c2c3c(c4c5ccccc5[nH]c4c21)C(=O)N(O)C3=O
2. Clc1cccc(-c2cc(-c3ccc4c(c3)OCCO4)[nH]n2)c1
3. Cc1cc(N/N=C/c2nc(-c3ccccc3)oc2C)c2cc(Br)ccc2n1
4. Cc1[nH]c2ccc(F)cc2c1CCNC(=O)C1CCN(C(=O)c2ccccc2)CC1
5. Fc1ccc(CNCCNc2ncnc3c2cnn3-c2ccccc2)cc1
6. COc1ccc(-c2nc(/C=C3/C(=O)Nc4ccc(F)cc43)c3ccccn23)cc1

stdout:
1: 3.5% (active); 2: 68.3% [25 µM] (inactive); 3: 1.21% (active); 4: 78.6% [25 µM] (inactive); 5: 97.4% (inactive); 6: 101% (inactive)

###

Please provide measured growth for the entries that follow.
System: UACC-62 melanoma
Experiment: NCI-60 one-dose screen, 48 h (100 = growth as untreated, 0 = no growth, -100 = all killed)
Conditions: 10 µM unless noted
About 83,000 compounds went through this panel and 20% of them were active in at least one assay; those are over-represented in the sample as a whole.
One number for each entry, in %.

| Compound | growth / % |
| --- | --- |
| CCc1cnc(=S)n(-c2ccccc2)c1 | 109 |
| CC1(c2ccc(Cl)cc2)OC(=O)CC(=O)O1 | 102 |
| Cn1ccc(Nc2nccc(Oc3ccc(C(=O)Nc4cccc(F)c4)c(Cl)c3)n2)c1 | 66.8 |
| O=[N+]([O-])c1cnc(Sc2ccncn2)s1 | 70.4 |
| CNc1ccc(Br)c2c1C(=O)c1ccccc1C2=O | 95.8 |

// for each compound below, give its growth
1. Nc1ccc(C(=O)CSc2nc3ccccc3[nH]2)cc1
2. COc1ccc(C2NN=C3c4ccccc4CCC32)cc1 (configuration not stated)

stdout:
1. 90.6
2. 49.9

###

What growth was measured for each of the following?
Test system: OVCAR-8 ovarian
Test: NCI-60 one-dose screen, 48 h (100 = growth as untreated, 0 = no growth, -100 = all killed)
Conditions: 10 µM unless noted
Compounds without any hit were thinned out: in the full panel of roughly 83,000, 20% have a hit. Calls of active or inactive are those of the source. Rule for the calls: active = growth percent below 10; inactive = the rest.

| Molecule | growth |
| --- | --- |
| O=S1(=O)CCC(N(/N=C/c2ccco2)c2ccccc2)C1 (stereo not given) | 94.7% (inactive) |
| COc1ccc(-c2cn(-c3cccc(C(=O)/C=C/c4cc(OC)c(OC)c(OC)c4)c3)c(=O)[nH]2)cc1OC | 64.9% (inactive) |
| COc1cccc(-c2nc3sccn3c2-c2ccnc(NCCCNS(=O)(=O)c3ccc(F)cc3)c2)c1 | 16% (inactive) |
| C=C(C)[C@@H]1CC[C@]2(C(=O)O)CC[C@]3(C)[C@H](CC[C@@H]4[C@@]5(C)C[C@@H](CC#Cc6ccc(C(F)(F)F)cc6)[C@H](O)C(C)(C)[C@@H]5CC[C@]43C)[C@@H]12 | 3.74% (active) |

Provide each entry's growth from the list below.
1. COc1cc(NC(N)=NCCC(C)(C)c2ccc(C(F)(F)F)cc2)ncc1C#N
2. COc1ccc(-c2ccc(-c3ccc(C(=N)N)s3)s2)cc1Cl
3. COc1ccc(-c2c(N)n[nH]c2-c2cc(OC)c3c(c2)OCCO3)cc1
4. COc1ccc(S(=O)(=O)NCCCNc2nccc(-c3c(-c4cccc([N+](=O)[O-])c4)nc4sccn34)n2)cc1
5. CCOC(=O)c1ccc(NC(=O)N2CC(C)OC(C)C2)cc1 (stereo not given)
6. COc1cccc(CC(C)=C(c2ccc(OCCN(C)C)cc2)c2ccc(OCCN(C)C)cc2)c1

stdout:
1. 24.4% (inactive)
2. -23.3% (active)
3. 83.5% (inactive)
4. 29.8% (inactive)
5. 101% (inactive)
6. -2.71% (active)

Go through the list and state growth for each entry.
1. CC(C)(C)N1CCC1C(N)=O (stereo not given)
2. O=C1c2c(Cl)c(Cl)c(Cl)c(Cl)c2C(=O)C2(Cl)CC=CCC12Cl (stereo not given)

stdout:
102% (inactive)
-34.9% (active)

###

Can you tell me growth for the items I'm about to list?
System: ACHN renal
Assay: NCI-60 one-dose screen, 48 h (100 = growth as untreated, 0 = no growth, -100 = all killed)
Details: 10 µM unless noted
This is part of a sample that, as a whole, favours compounds with a hit. Of some 83,000 tested, about 20% had one in any assay.
Numbers only, in %.

Solved entries (count: 4):
| Compound | Units of measure | growth |
| --- | --- | --- |
| CN1CCN(CCCOc2ccc3nc(Nc4ccc(Cl)c(C(F)(F)F)c4)ccc3c2)CC1 | % | 55.9 |
| Cn1c(=O)cc(NC(=O)CN2CCN(c3cc4c(cc3F)c(=O)c(C(=O)O)cn4C3CC3)CC2)[nH]c1=O | % | 99.9 |
| COc1ccc(-c2nc(SCCC(C)C)nc(Nc3ccc(F)c(Cl)c3)c2C#N)cc1 | % | 47.8 |
| C=C1CCC2C3(C)COC(c4c(OC)cccc4OC)OC3CCC2(C)C1C/C=C1/C(=O)OCC1O (stereo not given) | % | 66 |

Kindly review the next compound as well.
stdin: Look up growth: `COc1ccc(/C(C#N)=C/c2cc(OC)c(OC)c(OC)c2)cc1`
stdout: 49.4

###

Tested on: NCI-H522 lung
Test: NCI-60 one-dose screen, 48 h
Conditions: 10 µM unless noted
Compounds without any hit were thinned out: in the full panel of roughly 83,000, 20% have a hit. The source made the active and inactive calls. The calls were made as follows: active = growth percent below 10; inactive = the rest.
Would you mind answering with one of these outcomes? active, inactive

Observe how each entry below is paired with its result.
| Compound | Label class |
| --- | --- |
| O=S(=O)(NCCCNc1nccc(-n2ccc3cccnc32)n1)c1ccc(Br)cc1 | inactive |
| COc1ccc(-c2c(-c3cc(OC)c4c(c3)OCO4)noc2N)cc1 | active |

stdin: Call for entry C=C1CC2(OC1=O)C(=O)N(CCCN1C(=O)C3(CC(=C)C(=O)O3)c3ccccc31)c1ccccc12 (stereo unspecified) :
stdout: active

stdin: One more compound: O=C(c1ccccc1)C1OC1c1ccc([N+](=O)[O-])cc1 (stereo unspecified)
stdout: inactive

stdin: Please answer likewise for `CCc1cnc(=S)n(-c2ccccc2)c1`
stdout: inactive

stdin: // repeat for `COc1ccncc1S(=O)(=O)NC(=O)Nc1ccc(Cl)c(Cl)c1` and report
stdout: inactive

###

Record form. Attribute: growth. Fill in for each entry.
System: LOX IMVI melanoma
Experiment: NCI-60 one-dose screen, 48 h (100 = growth as untreated, 0 = no growth, -100 = all killed)
Conditions: 10 µM unless noted
The panel holds about 83,000 compounds, 20% with a hit somewhere; the sample as a whole holds those more often.
Give bare numbers, in %.

# annotated cases, reported growth shown
| Compound | Units of measure | growth |
| --- | --- | --- |
| COC(=O)C(Sc1ccc(Cl)cc1)C1SC(=S)N(Cc2ccccc2)C1=O (stereo not given) | % | 74.9 |
| O=C(Nc1ccc(Cl)c(Cl)c1)NS(=O)(=O)c1cnccc1Oc1ccc(F)cc1 | % | 83.3 |
| C=C[C@@H]1C[C@@H]2Cc3cc(F)ccc3N1O2 | % | 104 |
| CN1C=CN(Cc2ccc(-c3ccccn3)nc2)[CH-]1.CN1C=CN(Cc2ccc(-c3ccccn3)nc2)[CH-]1.[Au+3] | % | 32.4 |

Moving on to the next compound.
stdin: Would you mind telling me what growth value was observed for `COc1ccc(C(=O)N2NC(=O)/C(=C/c3cn(-c4ccccc4)nc3-c3ccccc3)N=C2c2ccccc2)cc1` ?
stdout: 99.2

###

Test system: KM12 colon
Assay: NCI-60 one-dose screen, 48 h (100 = growth as untreated, 0 = no growth, -100 = all killed)
Conditions: 10 µM unless noted
The panel holds about 83,000 compounds, 20% with a hit somewhere; the sample as a whole holds those more often. The source made the active and inactive calls. How the source made its calls: active means growth percent below 10; inactive means the rest.
Task for the reader: assign each of the following compounds its reported growth.

Field: example entries. Status: answers known.
| Compound | growth |
| --- | --- |
| CC(C)C(C(=O)NCCN1CCOCC1)N1C(=O)/C(=C/c2ccc(Br)cc2)SC1=S (stereo unspecified) | 99.7% (inactive) |
| COc1ccc(Cn2cc3c(c2-c2cc(OC)c(OC)c(OC)c2)CCc2cnoc2-3)cc1 | 11.1% (inactive) |
| CCOC(=O)CC(=O)OC | 115% (inactive) |
| O=C1/C(=C/c2ccccc2)CN(C(=O)CCN2CCC(=NO)CC2)C/C1=C\c1ccccc1 | -63.1% (active) |
| COc1cc(C2NN=C3c4ccccc4CCC32)cc(OC)c1OC (stereo unspecified) | 80.4% (inactive) |

For the 7 compounds below, give their growth values.
1. CCOC(=O)c1ccc2c(c1)c1c(C)c3cccnc3c(C)c1n2C
2. O=C(NNC(=O)N1c2ccccc2C=Cc2ccccc21)c1ccc2ccccc2c1
3. N/C(=N\C(N)=N\c1nc2ccccc2s1)c1cccc(Br)c1
4. CCCC(=O)Oc1ccc(/C(=C(\C)c2ccccc2)c2ccc(OCCN(CC)CC)cc2)cc1
5. C=C1C(=O)O[C@H]2[C@H]1CC/C(Cn1cc(-c3cccc(Cl)c3)nn1)=C\CC[C@@]1(C)O[C@@H]21
6. Fc1ccc(Nc2ncnc3ccc(-c4cnc5[nH]ccc5c4)cc23)cc1Cl
7. OCc1ncc(-c2ccccc2)s1

stdout:
1: 61.4% (inactive); 2: 98.6% (inactive); 3: 66.5% (inactive); 4: 79.5% (inactive); 5: 12.9% (inactive); 6: 23.3% (inactive); 7: 103% (inactive)

Okay, here is my list. What is growth for each of these?
1. COc1cc(-c2nn(-c3cccc(NC(=O)c4ccc(Cl)c(C(F)(F)F)c4)c3)cc2-c2ccncc2)ccc1Cl
2. COc1ccc(C2CC(c3ccc(OC)cc3OC)=NN2c2ccc(S(N)(=O)=O)cc2)cc1 (stereo unspecified)

stdout:
28.8% (inactive)
86.4% (inactive)

List growth for every entry below, keeping the order given.
1. Cn1c2ccc(Br)cc2c2c3c(c4c5ccccc5[nH]c4c21)C(=O)N(O)C3=O
2. Brc1ccc(-c2[nH]ncc2-c2c[nH]c3ccccc23)cc1
3. COc1cc(NC(N)=NCCC(C)(C)Oc2ccc(C(F)(F)F)cc2)ncc1C#N
4. N#C/C(=C1C=C/C(=N/O)C(Cl)=C/1)c1ccc(Cl)cc1
5. CCC(=O)OC1=CN2C(=NC(c3ccc(N)cc3)=CC2c2cc(OC)c(OC)c(OC)c2)S1 (stereo unspecified)
6. COc1cc(-c2nn(-c3cccc(NC(=O)Nc4ccc(Cl)c(C(F)(F)F)c4)c3)cc2-c2ccncc2)ccc1Cl

stdout:
1. -65.8% (active)
2. 94.3% (inactive)
3. -51.7% (active)
4. -46.4% (active)
5. 47.4% (inactive)
6. 2.88% (active)

stdin: # lookup: growth of `CCCCCCCCCCCC(=O)NCCC[N+](C)(C)CC(=O)[O-]`
stdout: 86.6% (inactive)

Hey, just so you know, these numbers are from PubChem BioAssay (NCI).
